Read-out: Urokinase-type plasminogen activator receptor (uPAR), PLAUR (gene 5329)
Protocol description: BSK_CASM3C_uPAR: BioMAP Diversity Plus: CASM3C Assay for Urokinase-type plasminogen activator receptor (uPAR) Biomarker Activity (AID 2283054);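 further: cell-surface uPAR protein level quantified by ELISA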
Run conditions: primary human coronary artery smooth muscle cells; actives raise or lower the signal
The source made the active and inactive calls. How the source made its calls: active means hit-call score of the fitted dose curve at least 0.9, where 1 is the maximum; inactive means score below 0.9.
Respond with a class label; see yes = active, no = inactive

CCOC(=O)COc1cc(-n2ncc(C(F)(F)F)c(C)c2=O)c(F)cc1Cl ... no
O=C(Nc1ccc([N+](=O)[O-])cc1Cl)c1cc(Cl)ccc1O ... yes
CCOC(=O)C(C)Oc1ccc(Oc2nc3ccc(Cl)cc3o2)cc1 (centres undefined) ... no
CCN(Cc1c(F)cccc1Cl)c1c([N+](=O)[O-])cc(C(F)(F)F)cc1[N+](=O)[O-] ... yes

Field: outcome | Entry: CCOC(=O)[C@H](C)Oc1ccc(Oc2nc3ccc(Cl)cc3o2)cc1
no

Field: outcome | Entry: CCSC(=O)N(CC(C)C)CC(C)C
no

Field: outcome | Entry: CCC(C)OC(=O)N1CCCCC1CCO (centres undefined)
no

Field: outcome | Entry: CC(C)(C)[C@@H](O)[C@@H](Cc1ccc(Cl)cc1)n1cncn1
no

Field: outcome | Entry: CC(C)CCCCCCc1ccc(O)cc1
yes

Field: outcome | Entry: CCCCCCC(C)OC(=O)COc1nc(F)c(Cl)c(N)c1Cl (centres undefined)
no

Field: outcome | Entry: CCNc1nc(N)nc(Cl)n1
no

Field: outcome | Entry: COc1nc(C)nc(NC(=O)NS(=O)(=O)c2ccccc2OCCCl)n1
no

Field: outcome | Entry: COC(=O)c1ccccc1S(=O)(=O)NC(=O)Nc1nc(OC(F)F)cc(OC(F)F)n1
no

Field: outcome | Entry: C#CCOC(=O)[C@@H](C)Oc1ccc(Oc2ncc(Cl)cc2F)cc1
no

Field: outcome | Entry: CC(=O)S[C@@H]1CC2=CC(=O)CC[C@]2(C)[C@H]2CC[C@@]3(C)[C@@H](CC[C@@]34CCC(=O)O4)[C@H]12
no
